Data provenance: the Human Domainome abundance scans (Beltran et al. 2025)

B1: Zinc finger homeobox protein 4, residues 2183 to 2238; numbered along this chain, Q86UP3 (parent)
chain: SSRTRFTDYQLRVLQDFFDTNAYPKDDEIEQLSTVLNLPTRVIVVWFQNARQKARK

- Variants of: B1
- EXPERIMENT_SUMMARY: abundance fitness (aPCA) (normalised: wild type 0, dead -1); higher = more abundant; growth selection in yeast, the domain comes from the species named
- TEST_PARAMETERS: Homo sapiens
Classification field: enter yes for abundance fitness values not below 0.002, no for values below it.

- L14E: no
- L32F: no
- T4M: yes
- R3H: yes
- Q10H: no
- L11N: yes
- N37C: no
- E28Y: no
- S33F: no
